Test system: Ruminococcus gnavus DSM 108212
Assay: growth (OD595) fold change vs plate DMSO controls (fold change (ratio)); higher = more growth
Details: incubation time: 27 h, anaerobic, 37 °C
Where a name gives a salt, the structure may show the parent alone.
endpoint: growth

compound: CC[N+](CC)(CC(=O)Nc1c(C)cccc1C)Cc1ccccc1 [Denatonium benzoate] (20 µM)
observedMeasurement: 1.02
--
compound: CC(C)(C)NCC(O)CSc1nc(-c2ccc(C(N)=O)s2)cs1 (stereo not drawn) [Arotinolol hydrochloride] (20 µM)
observedMeasurement: 1.01
--
compound: CN1CCC(=C2c3ccccc3CC(=O)c3sccc32)CC1 [Ketotifen fumarate] (20 µM)
observedMeasurement: 1

----------
System: Ruminococcus gnavus DSM 108212
Experiment: fold change of 2-Phenylethylamine concentration vs plate DMSO controls (fold change (ratio)); higher = more amine produced, active = hit call of the paper (significant change in both replicates, either direction)
Conditions: incubation time: 27 h, anaerobic, 37 °C
Counter-ions that a name gives are not always drawn.
Below, each of the compounds is paired with its reported fold change of 2-Phenylethylamine concentration value.
endpoint: fold change of 2-Phenylethylamine concentration

compound: c1ccc(CC2=NCCN2)cc1 [Tolazoline hydrochloride] (20 µM)
targetEntity: Ruminococcus gnavus DSM 108212
observedMeasurement: 1

compound: CC(C)NCC(O)COc1ccc(CCOCC2CC2)cc1 (stereo unspecified) [Betaxolol hydrochloride] (20 µM)
targetEntity: Ruminococcus gnavus DSM 108212
observedMeasurement: 1.01

compound: CCOC(=O)C1=C[C@]2(CC)CCCN3CCc4c(n1c1ccccc41)[C@@H]32 [Vinpocetine] (20 µM)
targetEntity: Ruminococcus gnavus DSM 108212
observedMeasurement: 0.972

compound: CC1=C(C(=O)O)N2C(=O)[C@@H](NC(=O)[C@H](N)C3=CCC=CC3)[C@H]2SC1 [Cephradine monohydrate] (20 µM)
targetEntity: Ruminococcus gnavus DSM 108212
observedMeasurement: 0.994

compound: Cc1ccc(Nc2c(F)cccc2Cl)c(CC(=O)O)c1 [Lumiracoxib] (20 µM)
targetEntity: Ruminococcus gnavus DSM 108212
observedMeasurement: 0.994

compound: CC(C(O)c1ccc(O)cc1)N1CCC(Cc2ccccc2)CC1 (stereo unspecified) [Ifenprodil tartrate] (20 µM)
targetEntity: Ruminococcus gnavus DSM 108212
observedMeasurement: 0.992

----------
Tested on: Klebsiella aerogenes DSM 30053
Experiment: fold change of Putrescine concentration vs plate DMSO controls (fold change (ratio)); higher = more amine produced, active = hit call of the paper (significant change in both replicates, either direction)
Conditions: incubation time: 27 h, anaerobic, 37 °C
Counter-ions that a name gives are not always drawn.
Overview of reported fold change of Putrescine concentration across a group of compounds:

compound: Nc1ccc(S(N)(=O)=O)cc1 [Sulfanilamide] (20 µM)
fold change of Putrescine concentration: 0.951
//
compound: CC(=O)CC(c1ccc([N+](=O)[O-])cc1)c1c(O)c2ccccc2oc1=O (stereo not given) [Acenocoumarol] (20 µM)
fold change of Putrescine concentration: 0.989
//
compound: CC(=O)Oc1cccc2c1C(=O)c1c(OC(C)=O)cc(C(=O)O)cc1C2=O [Diacerein] (20 µM)
fold change of Putrescine concentration: 0.956
//
compound: CC(C)NC[C@@H](O)COc1cccc2ccccc12 [(R) Propranolol hydrochloride] (20 µM)
fold change of Putrescine concentration: 0.993
//
compound: CN1CCN(C2Cc3ccccc3Sc3ccc(Cl)cc32)CC1 (stereo not given) [Octoclothepin maleate salt] (20 µM)
fold change of Putrescine concentration: 1
//
compound: CNC(=O)OCc1cccc(COC(=O)NC)n1 [Pyricarbate] (20 µM)
fold change of Putrescine concentration: 0.995
//
compound: Cc1ccsc1C(=CCCN1CCC[C@@H](C(=O)O)C1)c1sccc1C [Tiagabine hydrochloride] (20 µM)
fold change of Putrescine concentration: 1.02
//
compound: CC(=O)OCC(=O)[C@@]1(O)CC[C@H]2[C@@H]3CCC4=CC(=O)C=C[C@]4(C)[C@@]3(F)[C@@H](O)C[C@@]21C [Isoflupredone acetate] (20 µM)
fold change of Putrescine concentration: 1.03
//
compound: CN(N=O)C(=O)N[C@H]1C(O)O[C@H](CO)[C@@H](O)[C@@H]1O (mixture of isomers) [Streptozotocin] (20 µM)
fold change of Putrescine concentration: 0.962
//
compound: COc1cc(/C=C/C(=O)N2CCN(CC(=O)N3CCCC3)CC2)cc(OC)c1OC [Cinepazide maleate] (20 µM)
fold change of Putrescine concentration: 0.911

----------
growth by entry:
Test system: Escherichia coli IAI1
Assay: growth (OD595) fold change vs plate DMSO controls (fold change (ratio)); higher = more growth
Conditions: incubation time: 27 h, anaerobic, 37 °C
Structures can show the parent of a compound that is named as a salt.

molecule: CC(C)(CO)[C@@H](O)C(=O)NCCCC(=O)O [Hopantenate calcium] (20 µM)
growth: 0.997
--
molecule: Cc1ccc(S(=O)(=O)NC(=O)NN2CC3CCCC3C2)cc1 (stereo not drawn) [Gliclazide] (20 µM)
growth: 1.06
--
molecule: O=C1OC(c2ccc(O)cc2)(c2ccc(O)cc2)c2ccccc21 [Phenolphthalein] (20 µM)
growth: 0.983
--
molecule: CCN[C@@H]1C[C@H](N)[C@@H](O[C@H]2OC(CN)=CC[C@H]2N)[C@H](O)[C@H]1O[C@H]1OC[C@](C)(O)[C@H](NC)[C@H]1O [Netilmicin sulfate] (20 µM)
growth: 0.93
--
molecule: CC(C)=C/C(C)=N/Nc1nncc2ccccc12 [Budralazine] (20 µM)
growth: 1.05
--
molecule: Fc1ccc(C(c2ccc(F)cc2)N2CCN(C/C=C/c3ccccc3)CC2)cc1 [Flunarizine dihydrochloride] (20 µM)
growth: 1.05
--
molecule: COc1ccc2c(c1)c(CC(=O)O)c(C)n2C(=O)c1ccc(Cl)cc1 [Indomethacin] (20 µM)
growth: 1
--
molecule: CC(=O)Nc1ccccc1 [Acetanilide] (20 µM)
growth: 0.998

----------
Listed next: entries and their corresponding growth.
Tested on: Escherichia coli IAI1
Experiment: growth (OD595) fold change vs plate DMSO controls (fold change (ratio)); higher = more growth
Conditions: incubation time: 27 h, anaerobic, 37 °C
Structures can show the parent of a compound that is named as a salt.

molecule: COc1c(O[C@@H]2O[C@H](CO)[C@@H](O)[C@H](O)[C@H]2O)cc2c(c1OC)-c1ccc(SC)c(=O)cc1[C@@H](NC(C)=O)CC2 [Thiocolchicoside] (20 µM)
growth: 1
--
molecule: CC(C)NC(=N)NC(=N)Nc1ccc(Cl)cc1 [Proguanil hydrochloride] (20 µM)
growth: 0.955
--
molecule: CCCCCCOc1ccccc1C(N)=O [Exalamide] (20 µM)
growth: 0.997
--
molecule: COCCCOc1ccnc(C[S+]([O-])c2nc3ccccc3[nH]2)c1C (stereo not given) [Rabeprazole sodium salt] (20 µM)
growth: 0.993
--
molecule: COC(=O)C1=C(C)NC(C)=C(C(=O)OC2CCCN(Cc3ccccc3)C2)C1c1cccc([N+](=O)[O-])c1 (stereo not given) [Benidipine hydrochloride] (20 µM)
growth: 1.23
--
molecule: COc1ccc([C@@H]2Sc3ccccc3N(CCN(C)C)C(=O)[C@@H]2OC(C)=O)cc1 [Diltiazem hydrochloride] (20 µM)
growth: 1.02
--
molecule: OC[C@@H](O)[C@@H](O)[C@H](O)[C@H](O)CO [Mannitol] (50 µM)
growth: 0.924
--
molecule: CCC(=O)c1ccc(O)cc1 [Paroxypropione] (20 µM)
growth: 0.989
--
molecule: O=C(O)CCNC(=O)c1ccc(/N=N/c2ccc(O)c(C(=O)O)c2)cc1 [Balsalazide disodium salt] (20 µM)
growth: 1
--
molecule: O=C(O)c1ccccc1C(=O)Nc1ccc(S(=O)(=O)Nc2nccs2)cc1 [Phthalylsulfathiazole] (20 µM)
growth: 0.981

----------
Listing of entries alongside the reported growth.
System: Klebsiella aerogenes DSM 30053
Assay: growth (OD595) fold change vs plate DMSO controls (fold change (ratio)); higher = more growth
Details: incubation time: 27 h, anaerobic, 37 °C
Counter-ions that a name gives are not always drawn.

compound: Clc1ccc(CO/N=C(\Cn2ccnc2)c2ccc(Cl)cc2Cl)c(Cl)c1 [Oxiconazole nitrate] (20 µM)
growth: 0.981
--
compound: CC(C)NCC(O)COc1cccc2[nH]ccc12 (stereo unspecified) [Pindolol] (20 µM)
growth: 1.01
--
compound: Cc1c(C(=O)NN2CCCCC2)nn(-c2ccc(Cl)cc2Cl)c1-c1ccc(Cl)cc1 [Rimonabant] (20 µM)
growth: 1
--
compound: Cc1ncc([N+](=O)[O-])n1CC(O)CCl (stereo unspecified) [Ornidazole] (20 µM)
growth: 1.04
--
compound: CCCCNc1c(C(=O)OCC)c(C)nc2c1cnn2CC [Tracazolate hydrochloride] (20 µM)
growth: 1.01
--
compound: O=c1[nH]c(=O)n(C2CCCO2)cc1F (stereo unspecified) [Tegafur] (20 µM)
growth: 1.01
--
compound: CN[C@@H]1[C@@H](O)[C@@H](O[C@@H]2[C@@H](O)[C@H](O[C@H]3OC(CN)=CC[C@H]3N)[C@@H](N)C[C@H]2N)OC[C@]1(C)O [Sisomicin sulfate] (20 µM)
growth: 0.992
--
compound: N[C@@H]1CONC1=O [D-cycloserine] (20 µM)
growth: 1.09
--
compound: Cc1ccccc1OCC(O)CO (stereo unspecified) [Mephenesin] (20 µM)
growth: 1.02
--
compound: C=C(C)[C@@H]1CC=C(/C=N/O)CC1 [Perillartine] (50 µM)
growth: 1.09
--
compound: CC(CN(C)C)CN1c2ccccc2CCc2ccccc21 (stereo unspecified) [Trimipramine maleate salt] (20 µM)
growth: 0.974
